# System: RXRa homodimer (NR concentration 180 nM)
# PROTOCOL: PBM binding z-score (relative to random genomic background probes); higher = stronger binding; sequences stand for … in GC…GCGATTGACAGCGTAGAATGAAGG
Could you please report measured PBM binding z-score for the items listed next?
One number for each entry.

Before answering, review these 5 worked examples.
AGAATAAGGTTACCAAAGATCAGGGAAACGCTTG: 2.36
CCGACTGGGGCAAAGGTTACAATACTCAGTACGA: 4.11
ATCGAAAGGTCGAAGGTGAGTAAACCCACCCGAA: 4.9
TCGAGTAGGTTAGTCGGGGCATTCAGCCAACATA: -0.227
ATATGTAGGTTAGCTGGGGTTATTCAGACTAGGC: 2.43

Would you mind listing PBM binding z-score for each of the following sequences?
1. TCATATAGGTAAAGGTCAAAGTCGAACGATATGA
2. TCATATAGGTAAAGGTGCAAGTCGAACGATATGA
3. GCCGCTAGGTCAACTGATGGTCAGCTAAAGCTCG

Marked response:
[7.64, 1.18, 2.97]

---

For each entry below, report its PBM binding z-score value.
# Test system: PPARg:RXRa 270nM:90nM, anti-RXR (NR concentration 270 nM, RXRa partner concentration 90 nM)
# PROTOCOL: PBM binding z-score (relative to random genomic background probes); higher = stronger binding; sequences stand for … in GC…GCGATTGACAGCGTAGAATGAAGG

As a guide, the following entries are already answered.
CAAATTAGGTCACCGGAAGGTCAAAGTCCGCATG: 7.56
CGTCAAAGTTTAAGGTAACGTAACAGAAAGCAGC: 1.11
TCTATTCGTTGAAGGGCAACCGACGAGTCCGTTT: 2.42
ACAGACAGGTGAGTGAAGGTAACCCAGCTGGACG: 0.399
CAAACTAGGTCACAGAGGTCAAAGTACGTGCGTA: 8.39

With those in mind, consider the next sequence.
Exam item: Please supply the value of reported PBM binding z-score for the item "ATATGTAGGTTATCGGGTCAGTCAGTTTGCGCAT"
Marked response: 5.81

---

# Test system: LXRa:RXRa (NR concentration 270 nM, RXRa partner concentration 90 nM)
# PROTOCOL: PBM binding z-score (relative to random genomic background probes); higher = stronger binding; sequences stand for … in GC…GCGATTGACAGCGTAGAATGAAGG
QUANTITY_KIND: PBM binding z-score
One number for each entry.

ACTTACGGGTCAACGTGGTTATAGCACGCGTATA: 4.01
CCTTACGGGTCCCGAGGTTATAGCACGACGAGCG: 0.394

Dear reader, for each entry below, please note its PBM binding z-score.
1. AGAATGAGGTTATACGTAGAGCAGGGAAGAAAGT
2. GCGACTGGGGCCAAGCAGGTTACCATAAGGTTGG
3. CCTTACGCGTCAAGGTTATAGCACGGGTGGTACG
4. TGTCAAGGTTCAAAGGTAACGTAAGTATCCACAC

Marked response:
1.8
-0.471
0.749
5.12

---

# Test system: LXRa:RXRa (NR concentration 270 nM, RXRa partner concentration 90 nM)
# PROTOCOL: PBM binding z-score (relative to random genomic background probes); higher = stronger binding; sequences stand for … in GC…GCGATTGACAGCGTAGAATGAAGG
Definition: the class of an entry is the range in bottom bin = under 1, middle bin = from 1 up to 4, top bin = 4 and over that contains its PBM binding z-score.

Below are worked cases with known answers.
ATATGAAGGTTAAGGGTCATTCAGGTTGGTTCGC: top bin
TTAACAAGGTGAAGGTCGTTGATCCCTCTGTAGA: middle bin
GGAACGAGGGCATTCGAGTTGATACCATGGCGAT: middle bin
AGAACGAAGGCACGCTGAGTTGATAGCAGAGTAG: bottom bin
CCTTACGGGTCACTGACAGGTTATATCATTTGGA: top bin
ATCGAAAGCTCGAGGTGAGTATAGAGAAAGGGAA: bottom bin
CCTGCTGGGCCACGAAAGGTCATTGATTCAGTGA: top bin
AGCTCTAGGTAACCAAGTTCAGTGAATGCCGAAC: bottom bin
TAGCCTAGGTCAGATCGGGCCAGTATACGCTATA: middle bin
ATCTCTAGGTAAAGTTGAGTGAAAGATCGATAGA: bottom bin

Exam item: Hello team, could you let me know which band the following sequence falls into: "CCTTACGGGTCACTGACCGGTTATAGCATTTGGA"
Marked response: top bin

Exam item: Place this sequence in its band: "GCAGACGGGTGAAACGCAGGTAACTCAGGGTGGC"
Marked response: bottom bin

Exam item: Place this sequence in its band: "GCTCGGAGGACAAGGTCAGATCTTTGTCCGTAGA"
Marked response: middle bin

Exam item: Would you mind sorting "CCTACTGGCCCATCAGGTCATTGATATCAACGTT" into the appropriate category?
Marked response: middle bin

Exam item: Pick a category. Item: "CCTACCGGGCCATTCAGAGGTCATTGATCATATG"
Marked response: top bin

Exam item: Sort into band: "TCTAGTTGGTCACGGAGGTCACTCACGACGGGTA"
Marked response: middle bin

Exam item: Which class does "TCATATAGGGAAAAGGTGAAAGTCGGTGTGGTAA" fall in?
Marked response: middle bin

Exam item: Class for "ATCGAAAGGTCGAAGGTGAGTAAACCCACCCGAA" ?
Marked response: middle bin

Exam item: Kindly state the category for this sequence: "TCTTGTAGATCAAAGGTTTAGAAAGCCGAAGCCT"
Marked response: bottom bin

Exam item: Form: Item = "ATAATGAGGTTACCAAAGATCAGGGAAACGCTTG" ; Class = ?
Marked response: top bin

Exam item: Class for "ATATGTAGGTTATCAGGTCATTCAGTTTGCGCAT" ?
Marked response: middle bin

Exam item: Please classify: "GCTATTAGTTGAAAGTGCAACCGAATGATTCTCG"
Marked response: bottom bin
